Exercise: for every item that follows, state its recorded viability, T/C.
test system: 945468-187-T-J2-PDC spheroids viability; assay: Anticancer human tumor 945468-187-T-J2-PDC patient-derived rectal carcinoma cell line growth inhibition [PI3K]; settings: second compound 0.1 µM; first compound 1 µM; stronger effect = lower value; spheroids with HUVEC and MSC
Numbers only, in %.

Sample records with viability, T/C:
CC1(C)CCC(Nc2ncc(C(F)(F)F)c(-c3c[nH]c4c(P(C)(C)=O)c(C#N)ccc34)n2)CN1 (stereo not drawn) + Cc1nc(NC(=O)N2CCCC2C(N)=O)sc1-c1ccnc(C(C)(C)C(F)(F)F)c1 = 55.2
Cn1ncc(Cl)c1-c1cc(C(=O)NC(CN)Cc2cccc(F)c2)sc1Cl (stereo not drawn) + Cc1nc(NC(=O)N2CCCC2C(N)=O)sc1-c1ccnc(C(C)(C)C(F)(F)F)c1 = 101

Qu. Answer with reported viability, T/C of Cn1nccc1Nc1nccc(-c2ccn(C(CO)c3ccc(Cl)c(F)c3)c(=O)c2)n1 (stereo not drawn) + Cc1nc(NC(=O)N2CCCC2C(N)=O)sc1-c1ccnc(C(C)(C)C(F)(F)F)c1
Ans. 105

###

system: 945468-187-T-J2-PDC spheroids viability; test: Anticancer human tumor 945468-187-T-J2-PDC cell line growth inhibition [PI3K]; conditions: second compound 3.16 µM; first compound 0.0316 µM; stronger effect = lower value; spheroids with HUVEC and MSC;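 further: spheroids exposed to compounds for seven days before reading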
Exercise: for every item that follows, state its recorded viability, T/C.
Answers are plain numbers, in %.

Batch: viability, T/C for all items listed.
1. CCCS(=O)(=O)Nc1ccc(F)c(C(=O)c2c[nH]c3ncc(-c4ccc(Cl)cc4)cc23)c1F + CC(Nc1ncnc2nc[nH]c12)c1cc2cccc(Cl)c2c(=O)n1-c1ccccc1
2. CC(C)n1nc(-c2ccc3oc(N)nc3c2)c2c(N)ncnc21 + Cc1nc(NC(=O)N2CCCC2C(N)=O)sc1-c1ccnc(C(C)(C)C(F)(F)F)c1

Ans.
[98.6, 64]

Qu. Answer with reported viability, T/C of CCN1CCN(Cc2ccc(Nc3ncc(F)c(-c4cc(F)c5nc(C)n(C(C)C)c5c4)n3)nc2)CC1 + CC(Nc1ncnc2nc[nH]c12)c1cc2cccc(Cl)c2c(=O)n1-c1ccccc1
Ans. 94.2

###

test system: 945468-187-T-J2-PDC spheroids viability; assay: Anticancer human tumor 945468-187-T-J2-PDC cell line growth inhibition [PI3K]; conditions: second compound 0.1 µM; first compound 0.000316 µM; stronger effect = lower value; spheroids with HUVEC and MSC;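 further: spheroids exposed to compounds for seven days before reading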
metric: viability, T/C (%)
One number for each entry, in %.

Sample records with viability, T/C:
CC(=O)c1c(C)c2cnc(Nc3ccc(N4CCNCC4)cn3)nc2n(C2CCCC2)c1=O + COc1c(OCCCN2CCOCC2)ccc2c3n(c(=NC(=O)c4cnc(N)nc4)nc12)CCN3 = 102
CC(=O)c1c(C)c2cnc(Nc3ccc(N4CCNCC4)cn3)nc2n(C2CCCC2)c1=O + CC(Nc1ncnc2nc[nH]c12)c1cc2cccc(Cl)c2c(=O)n1-c1ccccc1 = 98.9
CC(C)n1nc(-c2ccc3oc(N)nc3c2)c2c(N)ncnc21 + CC(Nc1ccc2c(c1)OCCn1cc(N3C(=O)OCC3C(F)F)nc1-2)C(N)=O = 81

Batch: viability, T/C for all items listed.
1. Cn1ncnc1[C@H]1c2n[nH]c(=O)c3cc(F)cc(c23)N[C@@H]1c1ccc(F)cc1 + Cc1nc(NC(=O)N2CCCC2C(N)=O)sc1-c1ccnc(C(C)(C)C(F)(F)F)c1
2. CC(C)n1nc(-c2ccc3oc(N)nc3c2)c2c(N)ncnc21 + CC(Nc1ncnc2nc[nH]c12)c1cc2cccc(Cl)c2c(=O)n1-c1ccccc1
3. CC(C)n1nc(-c2ccc3oc(N)nc3c2)c2c(N)ncnc21 + Cc1nc(NC(=O)N2CCCC2C(N)=O)sc1-c1ccnc(C(C)(C)C(F)(F)F)c1

Ans.
1: 106; 2: 96.2; 3: 103

###

Tested on: 945468-187-T-J2-PDC spheroids viability
Test: Anticancer human tumor 945468-187-T-J2-PDC cell line growth inhibition [PI3K];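 further: spheroids exposed to compounds for seven days before reading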
Conditions: second compound 0.1 µM; first compound 3.16 µM; stronger effect = lower value; spheroids with HUVEC and MSC
Source text: Combinatorial screen of targeted agents with the PI3K inhibitors inavolisib, alpelisib, duvelisib, and copanlisib in multi-cell type tumor spheroids A high-throughput screen of multi-cell type tumor spheroids was designed to identify active combinations of targeted small molecules and PI3K pathway inhibitors. […] Compounds. […] If the clinical Cmax for an agent had not been determined, the highest concentration tested was 10 microM. […]
metric: viability, T/C (%)
Answers are plain numbers, in %.

Sample records with viability, T/C:
CC(C)NCC(C(=O)N1CCN(c2ncnc3c2C(C)CC3O)CC1)c1ccc(Cl)cc1 (stereo unspecified) + CC(Nc1ccc2c(c1)OCCn1cc(N3C(=O)OCC3C(F)F)nc1-2)C(N)=O = 89.9
CCCS(=O)(=O)Nc1ccc(F)c(C(=O)c2c[nH]c3ncc(-c4ccc(Cl)cc4)cc23)c1F + CC(Nc1ccc2c(c1)OCCn1cc(N3C(=O)OCC3C(F)F)nc1-2)C(N)=O = 90.2

Batch: viability, T/C for all items listed.
1. CC(Cn1ccc(-c2ccc(C#N)c(Cl)c2)n1)NC(=O)c1cc(C(C)O)[nH]n1 (stereo unspecified) + Cc1nc(NC(=O)N2CCCC2C(N)=O)sc1-c1ccnc(C(C)(C)C(F)(F)F)c1
2. Cn1ncc(Cl)c1-c1cc(C(=O)NC(CN)Cc2cccc(F)c2)sc1Cl (stereo unspecified) + COc1c(OCCCN2CCOCC2)ccc2c3n(c(=NC(=O)c4cnc(N)nc4)nc12)CCN3
3. CC(C)NCC(C(=O)N1CCN(c2ncnc3c2C(C)CC3O)CC1)c1ccc(Cl)cc1 (stereo unspecified) + COc1c(OCCCN2CCOCC2)ccc2c3n(c(=NC(=O)c4cnc(N)nc4)nc12)CCN3

Ans.
1: 104; 2: 46; 3: 82.3

Qu. Lab note: record viability, T/C of C[C@@H](NC(=O)c1ncnc(N)c1Cl)c1ncc(C(=O)Nc2cc(C(F)(F)F)c(Cl)cn2)s1 + CC(Nc1ccc2c(c1)OCCn1cc(N3C(=O)OCC3C(F)F)nc1-2)C(N)=O tested on 945468-187-T-J2-PDC spheroids viability.
Ans. 97.7

###

system: 945468-187-T-J2-PDC spheroids viability; test: Anticancer human tumor 945468-187-T-J2-PDC cell line growth inhibition [PI3K]; conditions: second compound 3.16 µM; first compound 0.001 µM; stronger effect = lower value; spheroids with HUVEC and MSC;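 further: spheroids exposed to compounds for seven days before reading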
metric: viability, T/C (%)
One number for each entry, in %.

Sample records with viability, T/C:
Cn1ncnc1[C@H]1c2n[nH]c(=O)c3cc(F)cc(c23)N[C@@H]1c1ccc(F)cc1 + Cc1nc(NC(=O)N2CCCC2C(N)=O)sc1-c1ccnc(C(C)(C)C(F)(F)F)c1 = 97.1
CC(C)n1nc(-c2ccc3oc(N)nc3c2)c2c(N)ncnc21 + Cc1nc(NC(=O)N2CCCC2C(N)=O)sc1-c1ccnc(C(C)(C)C(F)(F)F)c1 = 68.9
CC(=O)c1c(C)c2cnc(Nc3ccc(N4CCNCC4)cn3)nc2n(C2CCCC2)c1=O + CC(Nc1ncnc2nc[nH]c12)c1cc2cccc(Cl)c2c(=O)n1-c1ccccc1 = 87
CC(C)n1nc(-c2ccc3oc(N)nc3c2)c2c(N)ncnc21 + CC(Nc1ncnc2nc[nH]c12)c1cc2cccc(Cl)c2c(=O)n1-c1ccccc1 = 107
CC(=O)c1c(C)c2cnc(Nc3ccc(N4CCNCC4)cn3)nc2n(C2CCCC2)c1=O + Cc1nc(NC(=O)N2CCCC2C(N)=O)sc1-c1ccnc(C(C)(C)C(F)(F)F)c1 = 71.7

Here is another compound to look at.
Qu. Answer with reported viability, T/C of Cn1ncnc1[C@H]1c2n[nH]c(=O)c3cc(F)cc(c23)N[C@@H]1c1ccc(F)cc1 + CC(Nc1ncnc2nc[nH]c12)c1cc2cccc(Cl)c2c(=O)n1-c1ccccc1
Ans. 108

###

tested on: 945468-187-T-J2-PDC spheroids viability; experiment: Anticancer human tumor 945468-187-T-J2-PDC cell line growth inhibition [PI3K]; details: curve of first compound; second compound 0.316 µM; spheroids with HUVEC and MSC;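 further: spheroids exposed to compounds for seven days before reading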
pIC50: −log10 of the molar value.
Exercise: for every item that follows, state its recorded pIC50.

Sample records with pIC50:
Cn1ncnc1[C@H]1c2n[nH]c(=O)c3cc(F)cc(c23)N[C@@H]1c1ccc(F)cc1 + CC(Nc1ccc2c(c1)OCCn1cc(N3C(=O)OCC3C(F)F)nc1-2)C(N)=O = < 7.00
CCCS(=O)(=O)Nc1ccc(F)c(C(=O)c2c[nH]c3ncc(-c4ccc(Cl)cc4)cc23)c1F + CC(Nc1ccc2c(c1)OCCn1cc(N3C(=O)OCC3C(F)F)nc1-2)C(N)=O = 5.23

Here is another compound to look at.
Qu. Answer with reported pIC50 of Cn1ncc(Cl)c1-c1cc(C(=O)NC(CN)Cc2cccc(F)c2)sc1Cl (stereo not drawn) + CC(Nc1ccc2c(c1)OCCn1cc(N3C(=O)OCC3C(F)F)nc1-2)C(N)=O
Ans. < 5.00
